The origin of these recorded values is patent US20190241669A1.

- MEASURED_TARGET: Human BCMA (human) (UniProt Q02223)
- TEST_DETAILS: SPR, IgG immobilised, huBCMA analyte, 37 C
Recorded measurements of koff, one per entry
Kindly report the value followed by its unit.

// known answers, use as guide
>  <BINDER>
L3.PY/L3.KY/H2.LT (antibody, V domains shown, IgG) VH: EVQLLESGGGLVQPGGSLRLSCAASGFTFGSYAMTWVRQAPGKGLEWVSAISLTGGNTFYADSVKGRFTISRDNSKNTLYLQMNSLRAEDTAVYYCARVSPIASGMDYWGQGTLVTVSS VL: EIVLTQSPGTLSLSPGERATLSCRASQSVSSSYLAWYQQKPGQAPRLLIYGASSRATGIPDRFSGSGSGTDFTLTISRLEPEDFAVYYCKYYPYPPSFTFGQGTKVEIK

>  <READOUT_VALUE>
0.000906 s⁻¹

$$$$
>  <BINDER>
L3.PY/L1.FF/H2.QL (antibody, V domains shown, IgG) VH: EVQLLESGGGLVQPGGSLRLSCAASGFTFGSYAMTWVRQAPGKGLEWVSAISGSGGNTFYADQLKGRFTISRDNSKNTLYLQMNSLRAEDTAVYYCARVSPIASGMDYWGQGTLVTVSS VL: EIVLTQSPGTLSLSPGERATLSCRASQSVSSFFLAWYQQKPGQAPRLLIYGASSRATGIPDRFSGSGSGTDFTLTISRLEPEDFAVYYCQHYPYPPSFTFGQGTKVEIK

>  <READOUT_VALUE>
0.0014 s⁻¹

$$$$

Recorded result, L3.PY/L3.KF/H3.YA (antibody, V domains shown, IgG) VH: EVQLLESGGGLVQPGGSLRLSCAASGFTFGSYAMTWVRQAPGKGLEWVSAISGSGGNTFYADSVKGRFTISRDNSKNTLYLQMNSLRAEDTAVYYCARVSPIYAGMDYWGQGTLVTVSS VL: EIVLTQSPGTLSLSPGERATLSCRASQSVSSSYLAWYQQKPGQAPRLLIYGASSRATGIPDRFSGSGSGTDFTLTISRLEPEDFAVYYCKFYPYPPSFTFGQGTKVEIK , koff: 0.00147 s⁻¹

Recorded result, L3.PY/L3.KF/H2.QL (antibody, V domains shown, IgG) VH: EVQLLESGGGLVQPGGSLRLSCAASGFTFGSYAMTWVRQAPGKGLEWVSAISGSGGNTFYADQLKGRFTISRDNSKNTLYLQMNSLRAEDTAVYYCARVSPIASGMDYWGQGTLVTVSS VL: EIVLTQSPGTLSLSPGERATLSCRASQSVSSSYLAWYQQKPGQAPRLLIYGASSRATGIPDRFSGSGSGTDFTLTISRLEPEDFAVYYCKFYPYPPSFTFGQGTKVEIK , koff: 0.00125 s⁻¹

Recorded result, L3.PY/L1.FF/H3.AQ (antibody, V domains shown, IgG) VH: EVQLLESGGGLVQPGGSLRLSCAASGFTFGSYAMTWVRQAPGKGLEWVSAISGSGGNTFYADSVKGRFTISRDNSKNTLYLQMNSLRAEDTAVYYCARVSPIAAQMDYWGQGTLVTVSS VL: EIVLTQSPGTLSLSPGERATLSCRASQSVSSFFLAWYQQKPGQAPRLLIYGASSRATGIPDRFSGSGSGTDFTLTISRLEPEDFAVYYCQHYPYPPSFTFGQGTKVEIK , koff: 0.00154 s⁻¹
